The measured values listed here are drawn from patent US11566022B2.

- Assay system: HiBit-WIZ fusion protein (Homo sapiens, UniProt O95785+Q96SW2)
- Sequence (O95785 whole entry, the tested form may be a part): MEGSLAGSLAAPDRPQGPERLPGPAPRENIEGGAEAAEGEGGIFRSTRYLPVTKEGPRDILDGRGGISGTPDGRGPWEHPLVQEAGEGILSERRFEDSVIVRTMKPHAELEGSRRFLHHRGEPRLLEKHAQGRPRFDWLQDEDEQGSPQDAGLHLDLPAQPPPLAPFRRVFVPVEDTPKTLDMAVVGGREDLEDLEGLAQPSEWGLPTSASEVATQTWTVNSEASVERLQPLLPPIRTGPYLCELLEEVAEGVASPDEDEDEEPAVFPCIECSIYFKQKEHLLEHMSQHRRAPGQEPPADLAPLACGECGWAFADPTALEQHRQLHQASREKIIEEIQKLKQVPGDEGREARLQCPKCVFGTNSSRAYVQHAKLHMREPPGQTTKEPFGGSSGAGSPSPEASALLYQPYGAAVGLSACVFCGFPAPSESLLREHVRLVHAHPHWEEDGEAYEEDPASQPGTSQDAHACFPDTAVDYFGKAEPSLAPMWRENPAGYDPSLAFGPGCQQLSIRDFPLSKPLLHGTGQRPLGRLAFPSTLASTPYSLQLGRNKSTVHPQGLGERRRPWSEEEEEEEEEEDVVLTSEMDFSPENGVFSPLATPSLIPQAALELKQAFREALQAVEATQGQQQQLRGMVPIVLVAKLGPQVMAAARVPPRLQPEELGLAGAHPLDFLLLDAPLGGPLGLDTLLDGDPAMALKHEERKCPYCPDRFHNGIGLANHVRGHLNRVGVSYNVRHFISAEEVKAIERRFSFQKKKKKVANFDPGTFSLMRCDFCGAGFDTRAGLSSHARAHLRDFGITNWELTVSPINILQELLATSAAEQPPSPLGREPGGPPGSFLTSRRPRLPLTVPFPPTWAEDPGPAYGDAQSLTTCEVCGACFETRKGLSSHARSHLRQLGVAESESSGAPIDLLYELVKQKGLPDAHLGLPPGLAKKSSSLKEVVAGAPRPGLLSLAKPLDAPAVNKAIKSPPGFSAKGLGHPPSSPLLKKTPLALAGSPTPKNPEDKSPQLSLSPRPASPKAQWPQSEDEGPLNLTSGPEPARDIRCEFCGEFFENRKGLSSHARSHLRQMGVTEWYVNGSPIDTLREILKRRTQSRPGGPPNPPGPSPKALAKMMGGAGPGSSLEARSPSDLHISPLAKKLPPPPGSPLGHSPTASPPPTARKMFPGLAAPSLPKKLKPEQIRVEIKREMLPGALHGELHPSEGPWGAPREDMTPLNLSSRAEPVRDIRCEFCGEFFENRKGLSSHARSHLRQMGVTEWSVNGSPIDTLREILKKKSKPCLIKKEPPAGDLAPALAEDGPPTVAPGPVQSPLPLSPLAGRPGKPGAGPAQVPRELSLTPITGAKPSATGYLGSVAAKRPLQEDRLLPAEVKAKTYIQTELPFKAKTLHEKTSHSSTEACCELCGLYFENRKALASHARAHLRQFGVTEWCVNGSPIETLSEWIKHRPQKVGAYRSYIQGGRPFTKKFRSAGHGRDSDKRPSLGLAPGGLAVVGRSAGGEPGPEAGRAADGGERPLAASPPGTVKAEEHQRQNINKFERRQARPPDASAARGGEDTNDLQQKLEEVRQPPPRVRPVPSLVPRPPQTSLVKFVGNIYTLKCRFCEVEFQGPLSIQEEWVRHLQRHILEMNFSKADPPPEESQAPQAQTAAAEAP
- Sequence (Q96SW2 whole entry, the tested form may be a part): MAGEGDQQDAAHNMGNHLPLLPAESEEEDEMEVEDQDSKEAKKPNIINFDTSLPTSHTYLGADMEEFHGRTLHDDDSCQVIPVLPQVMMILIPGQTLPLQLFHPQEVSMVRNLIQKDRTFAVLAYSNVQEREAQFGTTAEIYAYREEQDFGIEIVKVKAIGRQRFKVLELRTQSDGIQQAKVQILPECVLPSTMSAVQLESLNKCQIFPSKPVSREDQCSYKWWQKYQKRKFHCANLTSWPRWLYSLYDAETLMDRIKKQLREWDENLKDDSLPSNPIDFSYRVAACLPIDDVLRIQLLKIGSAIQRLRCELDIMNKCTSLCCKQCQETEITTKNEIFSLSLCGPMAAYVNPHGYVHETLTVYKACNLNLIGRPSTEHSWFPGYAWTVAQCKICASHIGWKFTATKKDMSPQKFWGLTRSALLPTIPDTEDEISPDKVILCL
- Sequence (Q16531 whole entry partner, the tested form may be a part): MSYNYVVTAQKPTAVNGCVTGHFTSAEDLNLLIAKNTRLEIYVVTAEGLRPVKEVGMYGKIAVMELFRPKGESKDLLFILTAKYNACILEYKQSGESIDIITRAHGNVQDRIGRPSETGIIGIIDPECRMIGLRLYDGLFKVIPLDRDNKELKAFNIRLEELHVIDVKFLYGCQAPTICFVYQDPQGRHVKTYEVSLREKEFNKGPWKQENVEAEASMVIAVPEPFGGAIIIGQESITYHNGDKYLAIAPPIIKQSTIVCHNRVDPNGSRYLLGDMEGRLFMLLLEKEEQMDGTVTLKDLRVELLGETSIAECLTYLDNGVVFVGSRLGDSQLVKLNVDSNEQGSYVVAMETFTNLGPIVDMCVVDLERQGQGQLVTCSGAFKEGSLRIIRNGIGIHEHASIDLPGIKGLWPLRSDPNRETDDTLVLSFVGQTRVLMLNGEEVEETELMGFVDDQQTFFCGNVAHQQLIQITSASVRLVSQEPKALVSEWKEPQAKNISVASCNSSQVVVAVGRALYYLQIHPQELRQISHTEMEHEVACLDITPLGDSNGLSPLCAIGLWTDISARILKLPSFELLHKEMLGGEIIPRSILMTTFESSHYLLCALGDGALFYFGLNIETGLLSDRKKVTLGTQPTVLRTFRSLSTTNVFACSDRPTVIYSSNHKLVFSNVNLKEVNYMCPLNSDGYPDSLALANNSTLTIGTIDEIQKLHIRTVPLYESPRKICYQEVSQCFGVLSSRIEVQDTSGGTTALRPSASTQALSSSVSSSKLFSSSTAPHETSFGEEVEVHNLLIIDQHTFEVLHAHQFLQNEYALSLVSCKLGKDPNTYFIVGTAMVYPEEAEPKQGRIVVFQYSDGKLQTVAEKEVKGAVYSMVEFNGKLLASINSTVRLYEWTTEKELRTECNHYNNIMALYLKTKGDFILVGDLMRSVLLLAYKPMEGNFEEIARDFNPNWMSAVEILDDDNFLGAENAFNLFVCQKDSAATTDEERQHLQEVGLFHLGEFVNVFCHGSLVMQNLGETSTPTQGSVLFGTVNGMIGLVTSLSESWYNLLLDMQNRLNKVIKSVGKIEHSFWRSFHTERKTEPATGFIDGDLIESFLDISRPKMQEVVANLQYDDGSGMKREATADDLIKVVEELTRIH
- Assay: Quantification of WIZ protein levels in HiBit tag fusion protein assay (WIZ HiBit assay in 293T cells)
- Assay type: cell-based
- Setup conditions: HEK-293T, DMSO-normalized, curve-fitted percentage of WIZ-HiBit remaining at 25 uM; 293T cells; read-out: WIZ Amax
Output schema: class label derived from remaining activity at up to 25 µM. Mapping: bottom end: < 30%; midrange: ≥ 30% and < 90%; top end: ≥ 90%

{"Compound": "O=C1CCC(N2Cc3cc(OC[C@H]4CCCCN4Cc4cccc(Cn5ccnc5)c4)ccc3C2=O)C(=O)N1 (some centres unmarked) [Compound I-50eh]", "Group label": "bottom end"}

Category of O=C1CCC(N2Cc3cc(OCC4CC(F)(F)CCN4)ccc3C2=O)C(=O)N1 (centres unmarked) [Compound I-251] , please.
bottom end

Input CCc1cncc(C(=O)N2CCCC[C@H]2COc2ccc3c(c2)CN(C2CCC(=O)NC2=O)C3=O)c1 (some centres unmarked) [Compound I-72ay] ; output its category
midrange

Record O=C1CCC(N2Cc3cc(OC[C@@H]4CCCCN4C(=O)CCn4c(=O)oc5ccccc54)ccc3C2=O)C(=O)N1 (some centres unmarked) [Compound I-72jb] — which class?
top end

Hello team, could you let me know which band the following compound falls into: O=C1CCC(N2Cc3cc(OC[C@@H]4CCCCN4C(=O)c4cnnn4-c4ccccc4)ccc3C2=O)C(=O)N1 (some centres unmarked) [Compound I-72c]
midrange

Categorize the following entry: COc1cc(OC)nc(C(=O)N2CCCC[C@H]2COc2ccc3c(c2)CN(C2CCC(=O)NC2=O)C3=O)n1 (some centres unmarked) [Compound I-72is]
top end

* * *

- Assay system: HiBit-WIZ fusion protein (Homo sapiens, UniProt O95785+Q96SW2)
- Assay: Quantification of WIZ protein levels in HiBit tag fusion protein assay (WIZ HiBit assay in 293T cells)
- Type: cell-based
- Setup conditions: HEK-293T, DMSO-normalized, curve-fitted percentage of WIZ-HiBit remaining at 25 uM; 293T cells; read-out: WIZ Amax
# key: entry, value: remaining activity at up to 25 µM
Value expressed in %; do not type the unit.

{"Compound": "O=C1CCC(N2Cc3cc(OC[C@@H]4CCCCN4Cc4ccccc4OCCN4CCOCC4)ccc3C2=O)C(=O)N1 (stereo partly shown) [Compound I-50ab]", "Measured value": 49.2}
{"Compound": "O=C1CCC(N2Cc3cc(OC[C@@H]4CCCCN4Cc4cc(Cl)ccc4O)ccc3C2=O)C(=O)N1 (stereo partly shown) [Compound I-50bj]", "Measured value": 74.2}

Item under review: N#Cc1ccn2cc(CN3CCCC[C@H]3COc3ccc4c(c3)CN(C3CCC(=O)NC3=O)C4=O)nc2c1 (stereo partly shown) [Compound I-50c] . Reported remaining activity at up to 25 µM?
61.9

Requested read-out: remaining activity at up to 25 µM. Entry: Cn1c(CN2CCCC[C@H]2COc2ccc3c(c2)CN(C2CCC(=O)NC2=O)C3=O)nc2ccccc21 (stereo partly shown) [Compound I-50ap]
69.9

# query: remaining activity at up to 25 µM of entry COC1CCC(CN2CCCCC2C(C)Oc2ccc3c(c2)CN(C2CCC(=O)NC2=O)C3=O)CC1 (stereo not shown) [Compound I-217]
99.6

GET /values?readout=remaining activity at up to 25 µM&item= O=C1CCC(N2Cc3cc(OC[C@@H]4CCCCN4Cc4ccc(N5CCCC5=O)cc4)ccc3C2=O)C(=O)N1 (stereo partly shown) [Compound I-50o]
41.6

I'd like to know its remaining activity at up to 25 µM. The compound in question is O=C1CCC(N2Cc3cc(OC[C@@H]4CCCCN4Cc4ccccc4OCC(=O)N4CCCCC4)ccc3C2=O)C(=O)N1 (stereo partly shown) [Compound I-50am]
60

* * *

Listing of entries alongside the reported remaining activity at up to 25 µM.
- Assay system: HiBit-WIZ fusion protein (Homo sapiens, UniProt O95785+Q96SW2)
- Assay: Quantification of WIZ protein levels in HiBit tag fusion protein assay (WIZ HiBit assay in 293T cells)
- Type: cell-based
- Setup conditions: HEK-293T, DMSO-normalized, curve-fitted percentage of WIZ-HiBit remaining at 25 uM; 293T cells; read-out: WIZ Amax
// note: answer is a bare numeric in %

Here is how some molecules turned out for remaining activity at up to 25 µM.
{"Molecule": "Cc1nnsc1CN1CCCC[C@H]1COc1ccc2c(c1)CN(C1CCC(=O)NC1=O)C2=O (stereo partly shown) [Compound I-50at]", "Assay system": "HiBit-WIZ fusion protein (Homo sapiens, UniProt O95785+Q96SW2)", "Result units": "%", "remaining activity at up to 25 µM": 90.2}
{"Molecule": "O=C1CCC(N2Cc3cc(OC[C@@H]4CCCCN4C(=O)c4cccc(N5CCCC5=O)c4)ccc3C2=O)C(=O)N1 (stereo partly shown) [Compound I-72hf]", "Assay system": "HiBit-WIZ fusion protein (Homo sapiens, UniProt O95785+Q96SW2)", "Result units": "%", "remaining activity at up to 25 µM": 93.2}
{"Molecule": "O=C1CCC(N2Cc3cc(OC[C@@H]4CCCCN4C(=O)c4cccc(N5CCCCC5)n4)ccc3C2=O)C(=O)N1 (stereo partly shown) [Compound I-72av]", "Assay system": "HiBit-WIZ fusion protein (Homo sapiens, UniProt O95785+Q96SW2)", "Result units": "%", "remaining activity at up to 25 µM": 75.7}

// remaining activity at up to 25 µM lookup, key: O=C1CCC(N2Cc3cc(OC[C@H]4CCCCN4Cc4ccc(N5CCN(Cc6ccccc6)CC5)cc4)ccc3C2=O)C(=O)N1 (stereo partly shown) [Compound I-50br]
5.9

* * *

Dmax values, listed per item
- Assay system: HiBit-WIZ fusion protein (Homo sapiens, UniProt O95785+Q96SW2)
- Assay: Quantification of WIZ protein levels in HiBit tag fusion protein assay (WIZ HiBit assay in 293T cells)
- Type: cell-based
- Parameters: dose or concentration left out as unconfirmed
- Setup conditions: HEK-293T, 100 minus Amax; 293T cells; read-out: % degradation of WIZ (100-Amax)
State the answer as a number, implicitly in %.

{"Molecule": "CC(C)c1cc(C(=O)N2CCCC[C@H]2COc2ccc3c(c2)CN(C2CCC(=O)NC2=O)C3=O)on1 (stereo partly shown) [Compound I-72dp]", "Assay system": "HiBit-WIZ fusion protein (Homo sapiens, UniProt O95785+Q96SW2)", "Dmax [%]": 30.5}
{"Molecule": "O=C1CCC(N2Cc3cc(OC[C@@H]4CCCCN4C(=O)c4cccc(N5CCCCC5)n4)ccc3C2=O)C(=O)N1 (stereo partly shown) [Compound I-72av]", "Assay system": "HiBit-WIZ fusion protein (Homo sapiens, UniProt O95785+Q96SW2)", "Dmax [%]": 24.3}
{"Molecule": "Cc1nc[nH]c1CN1CCCC[C@H]1COc1ccc2c(c1)CN(C1CCC(=O)NC1=O)C2=O (stereo partly shown) [Compound I-50ac]", "Assay system": "HiBit-WIZ fusion protein (Homo sapiens, UniProt O95785+Q96SW2)", "Dmax [%]": 92.3}
{"Molecule": "Cn1nc(C(=O)N2CCCC[C@H]2COc2ccc3c(c2)CN(C2CCC(=O)NC2=O)C3=O)cc1-c1ccccc1 (stereo partly shown) [Compound I-72ir]", "Assay system": "HiBit-WIZ fusion protein (Homo sapiens, UniProt O95785+Q96SW2)", "Dmax [%]": 35.7}
{"Molecule": "O=C1CCC(N2Cc3cc(OC[C@@H]4CCCCN4Cc4ccc(N5CCCC5)nc4)ccc3C2=O)C(=O)N1 (stereo partly shown) [Compound I-50ak]", "Assay system": "HiBit-WIZ fusion protein (Homo sapiens, UniProt O95785+Q96SW2)", "Dmax [%]": 81.3}
{"Molecule": "O=C1CCC(N2Cc3cc(OC[C@@H]4CCCCN4Cc4cnn(Cc5ccccc5)c4)ccc3C2=O)C(=O)N1 (stereo partly shown) [Compound I-50ck]", "Assay system": "HiBit-WIZ fusion protein (Homo sapiens, UniProt O95785+Q96SW2)", "Dmax [%]": 83.2}

Entry Cn1nc(CN2CCCC[C@H]2COc2ccc3c(c2)CN(C2CCC(=O)NC2=O)C3=O)cc1-c1ccccc1 (stereo partly shown) [Compound I-50bc] , system HiBit-WIZ fusion protein (Homo sapiens, UniProt O95785+Q96SW2): what Dmax was measured?
93.4

* * *

Collected Dmax values appear next to each entry.
- Assay system: HiBit-WIZ fusion protein (Homo sapiens, UniProt O95785+Q96SW2)
- Assay: Quantification of WIZ protein levels in HiBit tag fusion protein assay (WIZ HiBit assay in 293T cells)
- Assay type: cell-based
- Set-up: dose or concentration left out as unconfirmed
- Setup conditions: HEK-293T, 100 minus Amax; 293T cells; read-out: % degradation of WIZ (100-Amax)
# number only, unit % dropped from output

{"Compound": "CC(C)(C)OC(=O)N1CCN(c2ccccc2CN2CCCC[C@@H]2COc2ccc3c(c2)CN(C2CCC(=O)NC2=O)C3=O)CC1 (stereo partly shown)", "Dmax [%]": 94.8}
{"Compound": "O=C1CCC(N2Cc3cc(OC[C@@H]4CCCCN4Cc4ccc(C(=O)N5CCCC5)cc4)ccc3C2=O)C(=O)N1 (stereo partly shown) [Compound I-50j]", "Dmax [%]": 65.4}
{"Compound": "N#Cc1ccccc1CN1CCCC[C@H]1COc1ccc2c(c1)CN(C1CCC(=O)NC1=O)C2=O (stereo partly shown) [Compound I-50h]", "Dmax [%]": 59.4}

Which Dmax value belongs to COC(=O)[C@@H]1CC[C@H](CN2CCCC[C@H]2COc2ccc3c(c2)CN(C2CCC(=O)NC2=O)C3=O)C1 (stereo partly shown) [Compound I-50cz] ?
49.8

Requested field: Dmax. Item: O=C1CCC(N2Cc3cc(OC[C@H]4CCCCN4Cc4ccccc4OCC(=O)N4CCCCC4)ccc3C2=O)C(=O)N1 (stereo partly shown) [Compound I-50dq]
71.2

Bench note: what Dmax did CCN(CC)c1ccc(CN2CCCC[C@@H]2COc2ccc3c(c2)CN(C2CCC(=O)NC2=O)C3=O)cn1 (stereo partly shown) [Compound I-50eb] show?
98.5

Need Dmax of N#CCCN1CCN(CC(=O)N2CCCC[C@H]2COc2ccc3c(c2)CN(C2CCC(=O)NC2=O)C3=O)CC1 (stereo partly shown) [Compound I-72x] , thanks.
0
